# target of assay: T1, CD133 (prominin-1) (Homo sapiens, UniProt O43490 O43490:20-865)
# T1 sequence: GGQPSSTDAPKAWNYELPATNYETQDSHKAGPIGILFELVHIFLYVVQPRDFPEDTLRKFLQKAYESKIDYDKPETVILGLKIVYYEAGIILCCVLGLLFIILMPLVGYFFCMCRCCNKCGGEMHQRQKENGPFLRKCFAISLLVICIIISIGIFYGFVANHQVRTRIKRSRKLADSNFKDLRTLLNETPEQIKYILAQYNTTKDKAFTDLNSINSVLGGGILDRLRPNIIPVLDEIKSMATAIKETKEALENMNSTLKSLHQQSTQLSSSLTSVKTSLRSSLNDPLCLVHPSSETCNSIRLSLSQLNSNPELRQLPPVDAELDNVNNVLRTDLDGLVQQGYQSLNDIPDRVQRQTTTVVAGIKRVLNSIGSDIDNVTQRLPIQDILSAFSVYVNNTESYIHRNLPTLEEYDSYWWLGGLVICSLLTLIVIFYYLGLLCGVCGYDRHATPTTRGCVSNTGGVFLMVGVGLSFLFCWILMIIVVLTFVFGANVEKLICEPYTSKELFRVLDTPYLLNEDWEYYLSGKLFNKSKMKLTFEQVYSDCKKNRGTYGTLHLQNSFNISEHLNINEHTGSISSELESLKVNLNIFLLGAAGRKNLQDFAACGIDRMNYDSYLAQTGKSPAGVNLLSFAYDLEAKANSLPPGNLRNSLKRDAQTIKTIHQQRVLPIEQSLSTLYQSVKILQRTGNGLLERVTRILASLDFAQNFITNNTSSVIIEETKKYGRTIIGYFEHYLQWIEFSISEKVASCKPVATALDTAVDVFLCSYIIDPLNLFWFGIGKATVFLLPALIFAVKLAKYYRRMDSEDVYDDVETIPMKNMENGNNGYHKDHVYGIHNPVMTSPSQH
# assay remarks: flow; HT-29 cells; 37 C 30 min, DPBS + MgCl2
# run conditions: tags: endogenous CD133 on CD133-positive HT-29 or Hep3B cells (ATCC); label: 5'-DY647
pKd: −log10 of the molar value.

{"binder": "CAGAACGUAUACUAUUCUG (ssRNA, 2'-F pyrimidines; 3'-inverted dT) [CD133-2-1]", "pKd": 6.84}
